residual activity values, listed per item
- target-system: PAK2 (human)
- protocol-summary: radiometric filter-binding kinase assay, Kinase HotSpot
- condition-notes: compound 0.5 µM; ATP 10 µM

| compound | residual activity, % |
| --- | --- |
| O=C(Nc1ccc(Cl)cc1)c1ccccc1NCc1ccncc1 | 91 |
| CC(C)(C)c1nc2c3ccc(F)cc3c3c(=O)[nH]ccc3c2[nH]1 | 88.8 |
| CC(C)[C@H](CO)Nc1nc(Nc2cccc(Cl)c2)c2ncn(C(C)C)c2n1 | 103 |
| NC(=O)c1ccc(N(C(N)=O)c2c(F)cccc2F)nc1-c1ccc(F)cc1F | 101 |
| O=c1cc(-c2cccc3c2Sc2ccccc2S3)oc(N2CCOCC2)c1 | 100 |
| COc1cc2nccc(Oc3ccc(NC(=S)NC(=O)c4ccccc4C)cc3)c2cc1OC | 91.2 |
| CCCNC(=O)Nc1ccc(Oc2ncnc3cc(OC)c(OC)cc23)cc1Cl | 81.4 |
| COc1cc2ncnc(Nc3ccc(F)c(Cl)c3)c2cc1OCCCN1CCOCC1 | 100 |
| Cc1cc2ncc(-c3ccccc3)nc2cc1C | 99.3 |
| Oc1ccc(-c2nc(-c3ccc(F)cc3)c(-c3ccncc3)[nH]2)cc1 | 94.1 |
| COc1ccc(-c2cnc3c(-c4ccsc4)cnn3c2)cc1 | 79.1 |
| O=C1Cc2c([nH]c3ccc([N+](=O)[O-])cc23)-c2ccccc2N1 | 41 |
| Nc1nc(Nc2ccc(S(N)(=O)=O)cc2)nn1C(=S)Nc1c(F)cccc1F | 26.4 |
| CCN1/C(=C/C(C)=O)Sc2ccc(OC)cc21 | 105 |
| CC(C)n1cnc2c(Nc3cccc(Cl)c3)nc(NCCO)nc21 | 106 |
| O=C1Nc2cc(Br)ccc2/C1=C1/Nc2ccccc2/C1=N\O | 90.9 |
| CSc1nc(-c2ccc(F)cc2)c(-c2ccnc(NC(C)c3ccccc3)c2)[nH]1 (centres undefined) | 104 |
| Cc1ccc(NC(=O)c2ccc(CN3CCN(C)CC3)cc2)cc1Nc1nc(-c2cccnc2)cs1 | 111 |
| O=C(NC(NC(=S)Nc1ccc(F)c([N+](=O)[O-])c1)C(Cl)(Cl)Cl)C(c1ccccc1)c1ccccc1 (centres undefined) | 100 |
| C#Cc1cccc(Nc2ncnc3cc(OCCOC)c(OCCOC)cc23)c1 | 99.1 |
| Clc1ccc(Nc2nnc(Cc3ccncc3)c3ccccc23)cc1 | 101 |
| O=c1cc(N2CCNCC2)oc2c(-c3ccccc3)cccc12 | 99.8 |
| CS(=O)c1ccc(-c2nc(-c3ccc(F)cc3)c(-c3ccncc3)[nH]2)cc1 (centres undefined) | 78 |
| Nc1n[nH]c2nnc(-c3c(-c4ccccc4)nn4ccccc34)cc12 | 100 |
